Tested on: RPMI-8226 leukemia
Experiment: NCI tumour cell line growth inhibition, 48 h
MEASURED_ATTRIBUTE: TGI

Consider the worked cases shown below.
Cc1nc(-n2nc(-c3ccccc3)cc2-c2ccccc2)sc1C(=O)CC(=O)C(=O)Nc1ccc(Cl)c(Cl)c1; > 100 µM
COC(=O)C1(Cc2ccc3c(c2)CCC3)Cc2ccc3c(c2C1=O)CCC3 (stereo unspecified); 52.7 µM
CC(C)(C)OC(=O)N(CCCCN(CCCn1c2c(c3ccccc3c1=O)C(=O)c1ccccc1-2)C(=O)OC(C)(C)C)CCCn1c2c(c3ccccc3c1=O)C(=O)c1ccccc1-2; 69.1 µM
ClCCCN1CCN(CCCl)CC1; 743 µM

So what does the record say about TGI for `O=c1cc(NNc2ccccc2)[nH]c(=O)[nH]1` ? 59.9 µM

Next entry: `O=C(O)c1ccc2c(O)c(O)ccc2c1` 40.2 µM
